system: IGR37-XP cells (Vemurafenib-resistant); experiment: Kinase inhibitor library screening, PrestoBlue cell viability, 1 or 10 μM, 72 h; settings: IGR37 XP, 10μΜ, 72 h
Definition: the class of an entry is the range in low band = under 2%, middle band = from 2% up to 50%, high band = 50% and over that contains its cell viability, IGR37 XP, 10μΜ.

Example cases with answers are listed next.
C[C@@H]1CCN(C(=O)CC#N)C[C@@H]1N(C)c1ncnc2[nH]ccc12 [Tofacitinib (CP-690550, Tasocitinib)]
high band
COc1cc2ncnc(Nc3cccc(Br)c3)c2cc1OC.Cl [PD153035 HCl]
middle band
COc1cc2ncnc(Nc3cccc(Cl)c3)c2cc1OC [AG-1478 (Tyrphostin AG-1478)]
middle band
CCOc1cc2ncc(C#N)c(Nc3ccc(F)c(Cl)c3)c2cc1NC(=O)/C=C/CN(C)C [Pelitinib (EKB-569)]
high band
Nc1ncnc2c1c(-c1cccc(OCc3ccccc3)c1)cn2C1CC(CN2CCCC2)C1 (stereo not shown) [NVP-ADW742]
low band
COc1cc2ncnc(Nc3ccc(O)c(Br)c3)c2cc1OC [WHI-P154]
middle band

Task item: # bin lookup: classify CNC(=O)c1c(F)cccc1Nc1nc(Nc2cc3c(cc2OC)CCN3C(=O)CN(C)C)nc2[nH]ccc12 [GSK1838705A, reference compound] by its cell viability, IGR37 XP, 10μΜ
Reply: low band

Task item: # bin lookup: classify COc1cccc(-c2cc(=O)c3ccccc3o2)c1N [PD98059] by its cell viability, IGR37 XP, 10μΜ
Reply: high band

Task item: # bin lookup: classify C#Cc1cccc(Nc2ncnc3cc(OCCOC)c(OCCO)cc23)c1 [OSI-420 (Desmethyl Erlotinib)] by its cell viability, IGR37 XP, 10μΜ
Reply: middle band

Task item: # bin lookup: classify CNC(=O)c1ccccc1Nc1nc(Nc2ccc(N3CCOCC3)cc2OC)ncc1Cl [NVP-TAE226] by its cell viability, IGR37 XP, 10μΜ
Reply: low band

Task item: # bin lookup: classify CCC[C@H](NC(=O)/C(C#N)=C/c1cccc(Br)n1)c1ccccc1 [WP1130, reference compound] by its cell viability, IGR37 XP, 10μΜ
Reply: low band

Task item: # bin lookup: classify CCOc1cc2ncc(C#N)c(Nc3ccc(OCc4ccccn4)c(Cl)c3)c2cc1NC(=O)/C=C/CN(C)C [Neratinib (HKI-272)] by its cell viability, IGR37 XP, 10μΜ
Reply: middle band

Task item: # bin lookup: classify COc1cc2ncnc(Nc3ccc(F)c(Cl)c3)c2cc1NC(=O)/C=C/CN1CCCCC1 [Dacomitinib (PF299804,PF-00299804)] by its cell viability, IGR37 XP, 10μΜ
Reply: low band

Task item: # bin lookup: classify O=C1NC(=O)C(c2ccccc2[N+](=O)[O-])=C1Nc1ccc(O)c(Cl)c1 [SB 415286] by its cell viability, IGR37 XP, 10μΜ
Reply: high band

Task item: # bin lookup: classify CN(c1ncccc1CNc1nc(Nc2ccc3c(c2)CC(=O)N3)ncc1C(F)(F)F)S(C)(=O)=O [PF-00562271] by its cell viability, IGR37 XP, 10μΜ
Reply: low band

Task item: # bin lookup: classify O=C(NOCC(O)CO)c1cc(Br)c(F)c(F)c1Nc1ccc(I)cc1F (stereo not shown) [PD318088] by its cell viability, IGR37 XP, 10μΜ
Reply: middle band
